tested target: PARP-1 enzyme (Homo sapiens)
assay text: In vitro inhibition of activity of poly (ADP-ribose) polymerase [PARP-1 enzyme], histone-coated plate chemiluminescence
Format: biochemical
protocol conditions: class symbols; read-out: Inhibitory activity against PARP-1 (IC50)
pIC50: −log10 of the molar value.
measure name: pIC50

These solved cases illustrate the format of a correct answer.
response.value for CCc1nc2ccc(CN3CCN(c4ccc(C(=O)NC)nc4F)CC3)nc2[nH]c1=O (field: pIC50) = ≥ 8.00

Reported pIC50 of CCc1nc2ccc(CN3CCN(c4ccc(C(=O)NC)nc4C)CC3)nc2[nH]c1=O : ≥ 8.00

Sure, the documented pIC50 for CCc1cc2ncc(C(C)N3CCN(c4cnc(C(=O)NC5CC5)nc4)CC3)cc2[nH]c1=O (stereo not drawn) is ≥ 8.00

More entries:
Quick note, pIC50 for CCC1C(=O)Nc2cc(CN3CCN(c4ccc(C(=O)NC5CC5)nc4)CC3)cnc2N1C (stereo not drawn) landed at 7.30 to 8.00

pIC50 reported for this compound CCC1Nc2ncc(CN3CCN(c4ccc(C(=O)NC)nc4)CC3)cc2NC1=O (stereo not drawn) : ≥ 8.00

* * *

tested target: PARP-1 enzyme (Homo sapiens, UniProt P09874)
Sequence (P09874 whole entry): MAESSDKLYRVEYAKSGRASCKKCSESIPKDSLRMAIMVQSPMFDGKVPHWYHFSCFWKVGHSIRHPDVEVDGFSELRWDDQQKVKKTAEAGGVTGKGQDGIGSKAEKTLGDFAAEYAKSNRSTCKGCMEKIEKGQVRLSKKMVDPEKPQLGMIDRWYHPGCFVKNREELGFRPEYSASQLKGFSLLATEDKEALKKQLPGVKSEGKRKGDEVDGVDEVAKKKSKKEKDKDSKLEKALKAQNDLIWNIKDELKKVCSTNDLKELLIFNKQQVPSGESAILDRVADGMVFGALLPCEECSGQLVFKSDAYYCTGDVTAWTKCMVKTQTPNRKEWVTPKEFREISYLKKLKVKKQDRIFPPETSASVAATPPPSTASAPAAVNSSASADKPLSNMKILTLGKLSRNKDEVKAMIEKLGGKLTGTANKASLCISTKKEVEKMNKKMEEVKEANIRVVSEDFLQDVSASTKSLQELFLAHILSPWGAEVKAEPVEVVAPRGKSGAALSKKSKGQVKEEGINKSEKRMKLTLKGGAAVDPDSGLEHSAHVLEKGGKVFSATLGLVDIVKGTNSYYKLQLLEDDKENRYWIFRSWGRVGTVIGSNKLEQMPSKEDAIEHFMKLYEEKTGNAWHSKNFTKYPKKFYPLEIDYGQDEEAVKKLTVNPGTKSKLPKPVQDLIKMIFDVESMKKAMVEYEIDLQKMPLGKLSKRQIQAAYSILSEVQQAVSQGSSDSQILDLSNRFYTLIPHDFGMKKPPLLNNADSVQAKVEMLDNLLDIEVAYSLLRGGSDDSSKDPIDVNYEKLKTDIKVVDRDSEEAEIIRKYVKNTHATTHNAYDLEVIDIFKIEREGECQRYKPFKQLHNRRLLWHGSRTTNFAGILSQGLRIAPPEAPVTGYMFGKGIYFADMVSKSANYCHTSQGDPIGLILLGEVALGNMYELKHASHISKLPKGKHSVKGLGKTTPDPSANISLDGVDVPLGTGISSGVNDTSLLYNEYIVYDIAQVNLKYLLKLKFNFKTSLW
assay text: In vitro inhibition of activity of poly (ADP-ribose) polymerase [PARP-1 enzyme], histone-coated plate chemiluminescence
Type: biochemical
protocol conditions: class symbols; read-out: Inhibitory activity against PARP-1 (IC50)
pIC50: −log10 of the molar value.
measure name: pIC50

Sample answers from the record:
Kindly note the recorded pIC50 for CCc1cc2ncc(CN3CCN(c4ccc(C(=O)NC5CC5)nc4C)CC3)cc2[nH]c1=O , which is 7.30 to 8.00

Short answer for CCc1cc2ncc(CN3CCN(c4ccc(C(=O)NC5CC5)nc4)CC3)nc2[nH]c1=O : pIC50 was ≥ 8.00

Kindly note the recorded pIC50 for O=C(NC1CC1)c1ccc(N2CCN(Cc3cnc4cc(C5CC5)c(=O)[nH]c4c3)CC2)cn1 , which is 7.30 to 8.00

From here, focus on the item given below.
Noted for O=C(NC1CC1)c1ccc(N2CCN(Cc3ccc4nc(CC(F)F)c(=O)[nH]c4c3)CC2)cn1 : its pIC50 reads ≥ 8.00

* * *

tested target: PARP-1 enzyme (Homo sapiens)
assay text: In vitro inhibition of activity of poly (ADP-ribose) polymerase [PARP-1 enzyme], histone-coated plate chemiluminescence
Format: biochemical
protocol conditions: class symbols; read-out: Inhibitory activity against PARP-1 (IC50)
pIC50: −log10 of the molar value.
# pIC50 per entry

The examples below pair each entry with its known result.
Value of measured pIC50 for the entry CCc1cc2ncc(CN3CCN(c4ccc(C(=O)NC5CC5)nc4F)CC3)cc2[nH]c1=O : 7.30 to 8.00

# pIC50 (molecule: CCc1nc2ccc(CN3CCN(c4ccc(C(=O)NC5CC5)nc4C(F)F)CC3)cc2[nH]c1=O ) is ≥ 8.00

response.value for CCc1cc2ccc(CN3CCN(c4ccc(C(=O)NC)nc4)CC3)nc2[nH]c1=O (field: pIC50) = ≥ 8.00

Turning to the following molecule.
Record summary for CCc1nc2ccc(CN3CCN(c4ccc(C(=O)NC5CC(F)C5)nc4)CC3)cc2[nH]c1=O (stereo not shown) : reported pIC50 = ≥ 8.00
